This collection of values is drawn from PubChem BioAssay AID720706.

- assay_notes: GFP drop in mixed WT/humanized-ribosome E. coli culture – GFP/RFP fluorescence, OD600, single point, bacterial rRNA inhibitor project, primary screen (AID 720706)
- condition: E. coli WT GFP vs humanized-ribosome RFP mutants, 24 h; measured here: OD600 growth, DMSO median 0, no signal -100
About 5,500 (1.6%) of roughly 350,000 compounds were called active. What follows is part of a selection rich in actives, with near analogues and random picks from the rest.
endpoint_label: OD600 change (%)
Report the value in % with no unit label.

Some solved cases for reference:
| molecule | unit_of_measure | OD600 change |
| --- | --- | --- |
| COc1ccc2c3c([nH]c2c1)[C@@H](CO)N(Cc1ccccc1OC)CC31CCN(C)CC1 | % | 0.435 |
| CCn1ccnc1CN(C)C(=O)c1cc(COc2ccc(Cl)cc2OC)on1 | % | 0.213 |
| O=C(c1cccc(F)c1)N1CC(=O)N2[C@H](C1)[C@@H](c1ccc(C#Cc3ccc(F)cc3)cc1)[C@@H]2CO | % | -7.67 |
| COc1ccc(NC(=O)Nc2ccc3c(c2)C(=O)N([C@H](C)CO)C[C@@H](C)[C@H](CN(C)CC2CCCCC2)OCCCC[C@@H](C)O3)cc1 | % | -1.06 |

According to the records, this molecule CC1(C)CN(CCc2ccccc2)C(=O)[C@H]1CC(=O)Nc1ccc(Br)cc1 displays OD600 change of 0.615

According to the records, this molecule CCc1cccc(C)c1N1C(=O)CN(Cc2ccccc2)C1=S displays OD600 change of -44.9

According to the records, this molecule O=S(=O)(N[C@@H]1CC[C@H](CCn2cc(C3(O)CCCC3)nn2)O[C@@H]1CO)c1ccc(Cl)cc1 displays OD600 change of -3.78

According to the records, this molecule COc1cc(OC)c(OC)cc1CN1CCN(C(=O)c2cccc3ccccc23)CC1 displays OD600 change of 7.23

According to the records, this molecule O=C(C[C@H]1C=C[C@H](NC(=O)C2CCC2)[C@H](CO)O1)NCCCN1CCOCC1 displays OD600 change of 4.36

According to the records, this molecule CC1(C(=O)Nc2ccc3c(c2)OCCO3)CSCC(=O)N1CCOc1ccccc1 (configuration not stated) displays OD600 change of -13.7

According to the records, this molecule O=C(CN1CCCCC1)NC(=O)Nc1ccccc1F displays OD600 change of 19.5

According to the records, this molecule CO[C@@H]1CN(C)C(=O)c2ccc(NS(=O)(=O)c3ccc(Cl)cc3)cc2OC[C@@H](C)N(C)C[C@@H]1C displays OD600 change of 1.84

According to the records, this molecule C[C@@H]1CN([C@H](C)CO)C(=O)c2cccc(NS(=O)(=O)c3ccc(F)cc3)c2O[C@@H]1CN(C)S(=O)(=O)c1ccc(Cl)cc1 displays OD600 change of -16.2

According to the records, this molecule O=C(NC1CCCCC1)N1CC2(C1)[C@H](c1ccccc1)[C@@H](CO)N2S(=O)(=O)Cc1ccccc1 displays OD600 change of -18.2

According to the records, this molecule CC(C)(C)NC(=O)NC(=O)CN1CCC(Cc2ccccc2)CC1 displays OD600 change of -22.7

According to the records, this molecule COc1ccc(S(=O)(=O)Nc2ccc3c(c2)CC(=O)N([C@H](C)CO)C[C@H](C)[C@@H](CN(C)C(=O)NC(C)C)O3)cc1 displays OD600 change of 6.54

According to the records, this molecule Cc1ccc(-c2ccc([C@H]3[C@H](CO)N4C(=O)CN(S(=O)(=O)c5cccc(F)c5)C[C@@H]34)cc2)cc1 displays OD600 change of -0.94

According to the records, this molecule O=C(NC(=S)Nc1ncccn1)c1ccccc1Br displays OD600 change of 4.96

According to the records, this molecule COc1cccc(OC)c1C(=O)N1CCN(Cc2ccccc2F)CC1 displays OD600 change of 16.8

According to the records, this molecule Cc1cc(Nc2ccc(Br)cc2)nc2ccccc12 displays OD600 change of -41

According to the records, this molecule C[C@@H]1CN([C@H](C)CO)S(=O)(=O)c2ccc(C3=CCCC3)cc2O[C@H]1CN(C)Cc1ccccc1F displays OD600 change of 5.49

According to the records, this molecule Cc1c(C(=O)NCC2CCCO2)sc2nc(-c3ccccc3)cn12 (configuration not stated) displays OD600 change of -21.2

According to the records, this molecule Cc1ccccc1-c1ccc2c(c1)O[C@@H](CN(C)C(=O)Nc1ccc(F)cc1)[C@H](C)CN([C@@H](C)CO)S2(=O)=O displays OD600 change of -11.6

According to the records, this molecule CCC(=O)N1CC(=O)N2[C@H](CO)[C@@H](c3ccc(-c4ccc(C(=O)N(C)C)cc4)cc3)[C@@H]2C1 displays OD600 change of -1.8

According to the records, this molecule C[C@@H]1CN([C@H](C)CO)C(=O)c2cccc(NC(=O)C3CC3)c2O[C@@H]1CN(C)C(=O)Nc1ccccc1 displays OD600 change of 10.7

According to the records, this molecule COc1ccc(Br)cc1CN1CCN(C(=O)c2cccc(OC)c2OC)CC1 displays OD600 change of -11.8

According to the records, this molecule CCCc1c(C(=O)O)cnn1-c1ccc(Cl)cc1 displays OD600 change of -3.54

According to the records, this molecule O=C(N[C@H]1CC[C@@H](CCNS(=O)(=O)Cc2ccccc2)O[C@H]1CO)c1ccccc1F displays OD600 change of 2.62

According to the records, this molecule CSc1ccccc1OCc1cc(C(=O)N(C)CCc2c(C)n[nH]c2C)no1 displays OD600 change of -25.7

According to the records, this molecule O=C(C[C@H]1C[C@@H]2c3cc(NS(=O)(=O)c4ccc(F)cc4)ccc3O[C@@H]2[C@H](CO)O1)NCc1cccc(F)c1 displays OD600 change of -2.85

According to the records, this molecule Cc1c(C(=O)NCCN2CCOCC2)sc2nc(-c3ccc(F)cc3)cn12 displays OD600 change of -2.55

According to the records, this molecule Cc1cccc(C)c1N1C(=O)CN(Cc2ccccc2)C1=S displays OD600 change of -16.8
